system: Phosphorylated Ribosomal Protein S6 (RPS6); assay: THP-1 RPS6 ELISA Assay; assay type: cell-based, Human; settings: THP-1 cells; read-out: PI3Kγ_THP1_RPS6_ELISA IC50
Where a name gives a salt, the structure may show the parent alone.
VALUE TYPE: IC50

Query string: Dear colleague, please send me the reported IC50 for Cc1ccc(S(=O)(=O)N[C@H]2C[C@H](C#N)C2)cc1-c1cnc2c(N)ncnn12 [Example 89, trifluoroacetate salt] when you can.
Result string: < 100 nM

Query string: Supply reported IC50 belonging to this compound: Cc1c(F)cc(S(=O)(=O)NC23CCC(CO)(CC2)OC3)cc1-c1cnc2c(N)ncnn12 [Example 375, trifluoroacetate salt]
Result string: < 100 nM

Query string: Determine from records and report IC50 for Cc1ccc(S(=O)(=O)NC23CC(F)(C2)C3)cc1-c1cnc2c(N)ncnn12 [Example 98, trifluoroacetate salt]
Result string: 100 to 500 nM

Query string: Fill in IC50 for record COC(=O)C12CC(NS(=O)(=O)c3ccc(C)c(-c4cnc5c(N)ncnn45)c3)(C1)C2 [Example 88, trifluoroacetate salt]
Result string: < 100 nM

Query string: Answer with the recorded IC50 for the compound listed here: C[C@]1(O)CC[C@H](NS(=O)(=O)c2cc(-c3cnc4c(N)nc(-c5ccccc5F)cn34)ccc2F)CC1
Result string: < 100 nM
